Target: P2RY10 (Homo sapiens, UniProt O00398)
Construct: purchased Promega (in-house HiBiT-GPCR construct library, NanoBRET)
Sequence (O00398 whole entry, one chain of several): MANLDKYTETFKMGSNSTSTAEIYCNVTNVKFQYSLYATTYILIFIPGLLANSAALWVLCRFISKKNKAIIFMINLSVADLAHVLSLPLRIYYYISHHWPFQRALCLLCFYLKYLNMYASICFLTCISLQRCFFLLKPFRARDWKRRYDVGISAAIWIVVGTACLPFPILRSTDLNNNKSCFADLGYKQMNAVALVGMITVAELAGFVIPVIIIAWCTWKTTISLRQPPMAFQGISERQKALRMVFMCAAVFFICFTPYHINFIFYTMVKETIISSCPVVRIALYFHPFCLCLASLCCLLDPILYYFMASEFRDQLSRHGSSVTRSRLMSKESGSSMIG
Assay: NanoBRET screen HiBiT-P2RY10 in HEK293
Type: binding
Conditions: P2RY10; tracer 0.1μM
Attribute measured: NanoBRET Fold Response

Consider the following illustrative entries.
# Molecule, NanoBRET Fold Response
records = [
    ("CC(C)N(CC[C@H](c1ccccc1)c1cc(CCNC(=O)CCOCCOCCOCCOCCNC(=O)CCc2ccc3n2[B-](F)(F)[N+]2=C(c4ccc[nH]4)C=CC2=C3)ccc1O)C(C)C", 0.91),
    ("O=C(CCc1ccc2n1[B-](F)(F)[N+]1=C(c3ccc[nH]3)C=CC1=C2)NCc1ccc(C(=O)NCCOCCC(=O)N[C@@H]2CC[C@@]3(O)[C@H]4Cc5ccc(O)c6c5[C@@]3(CCN4CC3CC3)[C@H]2O6)cc1 [Naltrexone-3-NB590]", 1.07),
    ("O=C(CCOCCOCCOCCOCCNC(=O)CCc1ccc2n1[B-](F)(F)[N+]1=C(c3ccc[nH]3)C=CC1=C2)NCCCN1CCN(C2=Nc3ccccc3Oc3ccc(Cl)cc32)CC1", 1.14),
    ("CCCn1c(=O)c2[nH]c(-c3ccc(OCC(=O)NCCNC(=O)CCOCCNC(=O)c4ccc(CNC(=O)CCc5ccc6n5[B-](F)(F)[N+]5=C(c7ccc[nH]7)C=CC5=C6)cc4)cc3)nc2n(CCC)c1=O", 0.88),
]

Continue with the next molecule.
Record summary for Cc1nc2n(c(=O)c1CCN1CCC(c3noc4cc(F)ccc34)CC1)CCCC2OC(=O)NCCOCCOCCOCCOCCNC(=O)CCc1ccc2n1[B-](F)(F)[N+]1=C(c3ccc[nH]3)C=CC1=C2 (centres unmarked) : reported NanoBRET Fold Response = 1.14
